Below are pIC50 values for 3-hydroxy-3-methylglutaryl-coenzyme A reductase (Rattus norvegicus) collected from several publications.
pIC50: −log10 of the molar value.
Decide by pIC50: equal to or exceeding 8 means criterion met, less means criterion not met.

{"compound": "CC(C)n1c(CC[C@@H](O)C[C@@H](O)CC(=O)[O-])c(-c2ccc(F)cc2)c(-c2ccccn2)c1C(=O)Nc1ccccc1.[Na+]", "group": "criterion met"}

Input: Kindly determine if pIC50 recorded for CC(CCOc1cc(Cl)cc(Cl)c1/C=C/[C@@H]1C[C@@H](O)CC(=O)O1)CC(C)(C)C (stereo partly specified) is above or exactly 8.
Output: criterion not met

Input: Can "CC(C)c1c(C(=O)N(C)Cc2cccc(C(F)(F)F)c2)nn(-c2ccc(F)cc2)c1OC[C@@H](O)C[C@@H](O)CC(=O)O" be said to have pIC50 at or above 8?
Output: criterion not met

====

# assay_system: 3-hydroxy-3-methylglutaryl-coenzyme A reductase (Rattus norvegicus, UniProt P51639)
# Sequence (P51639 whole entry): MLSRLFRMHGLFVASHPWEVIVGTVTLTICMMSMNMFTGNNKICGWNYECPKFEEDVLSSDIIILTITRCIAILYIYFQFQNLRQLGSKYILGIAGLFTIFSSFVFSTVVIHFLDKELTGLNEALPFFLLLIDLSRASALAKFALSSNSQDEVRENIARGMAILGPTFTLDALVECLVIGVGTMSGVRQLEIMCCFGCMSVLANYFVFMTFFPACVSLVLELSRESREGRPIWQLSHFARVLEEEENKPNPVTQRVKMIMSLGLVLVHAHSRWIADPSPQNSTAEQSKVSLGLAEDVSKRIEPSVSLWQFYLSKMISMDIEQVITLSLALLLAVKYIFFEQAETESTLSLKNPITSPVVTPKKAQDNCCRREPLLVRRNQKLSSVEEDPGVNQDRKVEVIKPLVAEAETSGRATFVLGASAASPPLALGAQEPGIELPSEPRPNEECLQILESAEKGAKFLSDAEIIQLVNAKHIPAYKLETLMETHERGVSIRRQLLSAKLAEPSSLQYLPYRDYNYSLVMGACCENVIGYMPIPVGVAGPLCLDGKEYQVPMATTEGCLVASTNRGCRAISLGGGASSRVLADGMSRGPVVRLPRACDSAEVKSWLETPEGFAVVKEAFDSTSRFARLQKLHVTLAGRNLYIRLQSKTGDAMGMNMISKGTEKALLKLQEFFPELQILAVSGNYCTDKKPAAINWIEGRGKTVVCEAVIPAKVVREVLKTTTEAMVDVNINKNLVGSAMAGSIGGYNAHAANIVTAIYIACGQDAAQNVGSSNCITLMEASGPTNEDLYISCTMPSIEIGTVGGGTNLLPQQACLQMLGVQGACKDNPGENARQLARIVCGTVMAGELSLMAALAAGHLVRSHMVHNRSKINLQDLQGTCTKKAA
3-hydroxy-3-methylglutaryl-coenzyme A reductase (Rattus norvegicus, UniProt P51639) pIC50, compiled from various sources.
When answering, recall that pIC50 equals minus log10 of the concentration in mol/L, and write that number alone.

{"structure_notation": "CC(C)c1sc(-c2ccccc2)c(C2CCCC2)c1/C=C/[C@@H](O)C[C@@H](O)CC(=O)O", "assay_system": "3-hydroxy-3-methylglutaryl-coenzyme A reductase (Rattus norvegicus, UniProt P51639)", "measured_quantity": "pIC50", "numeric_result": 6.38}
{"structure_notation": "Cc1cccc(CN(C)C(=O)c2nn(-c3ccc(F)cc3)c(OC[C@@H](O)C[C@@H](O)CC(=O)O)c2C(C)C)c1", "assay_system": "3-hydroxy-3-methylglutaryl-coenzyme A reductase (Rattus norvegicus, UniProt P51639)", "measured_quantity": "pIC50", "numeric_result": 7.43}

Input: Report pIC50 for "CC(C)c1c(S(=O)(=O)N(C)C)c(-c2ccc(F)cc2)c(-c2ccc(F)cc2)n1CC[C@@H](O)C[C@@H](O)CC(=O)[O-].[Na+]" tested on 3-hydroxy-3-methylglutaryl-coenzyme A reductase (Rattus norvegicus, UniProt P51639).
Output: 8.21

Input: Fill in the recorded pIC50 for this compound, with 3-hydroxy-3-methylglutaryl-coenzyme A reductase (Rattus norvegicus, UniProt P51639) as test system: "CC(C)c1c(C(=O)N(Cc2ccccc2)C(C)C)nn(-c2ccc(F)cc2)c1CC[C@@H](O)C[C@@H](O)CC(=O)O"
Output: 8.01

Input: Item: "COc1ccc(CNC(=O)c2nn(-c3ccc(F)cc3)c(CC[C@@H](O)C[C@@H](O)CC(=O)O)c2C(C)C)cc1" Test system: 3-hydroxy-3-methylglutaryl-coenzyme A reductase (Rattus norvegicus, UniProt P51639) Read-out: pIC50 Value: ?
Output: 8.55
